# Tested on: A498 renal
# assay remarks: NCI tumour cell line growth inhibition, 48 h
This section presents compounds with their documented TGI values.
The reply should be a number in µM, with the unit left off.

Dear colleague, I am looking for the recorded TGI of the following compound: O=C1/C(=C/c2ccccc2)CN(C(=O)c2cccnc2)C/C1=C\c1ccccc1
5.42

Dear colleague, I am looking for the recorded TGI of the following compound: Oc1cc(Br)cc2cccnc12
24.3

Dear colleague, I am looking for the recorded TGI of the following compound: COc1cc(NC(C)=O)ccc1C(=O)N/N=C/c1ccc(Cl)cc1Cl
61

Dear colleague, I am looking for the recorded TGI of the following compound: CCC(CO)Nc1nc(NCc2ccccc2O)c2ncn(C(C)C)c2n1 (configuration not stated)
18

Dear colleague, I am looking for the recorded TGI of the following compound: O=C(CNc1cccc([N+](=O)[O-])c1)Nn1c(-c2ccccc2)nc2ccccc2c1=O
0.274

Dear colleague, I am looking for the recorded TGI of the following compound: Nc1c2c(=O)[nH]c(=O)c2c(N)c2c(=O)c3ccccc3c(=O)c12
2.85

Dear colleague, I am looking for the recorded TGI of the following compound: CCOC(=O)C(/C=N\C(=S)Nc1ccc(Cl)c(Cl)c1)=C(/O)c1ccccc1
20.4

Dear colleague, I am looking for the recorded TGI of the following compound: COC(=O)C1(c2cc3ccccc3n2S(=O)(=O)c2ccccc2)CC2C=CC1NC2 (configuration not stated)
13
